Molecular target: Angiopoietin-1 receptor (Homo sapiens) (UniProt Q02763);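 also: reported value is the mean TIE2 inhibition from the GSK PKIS dataset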
Sequence (Q02763 whole entry): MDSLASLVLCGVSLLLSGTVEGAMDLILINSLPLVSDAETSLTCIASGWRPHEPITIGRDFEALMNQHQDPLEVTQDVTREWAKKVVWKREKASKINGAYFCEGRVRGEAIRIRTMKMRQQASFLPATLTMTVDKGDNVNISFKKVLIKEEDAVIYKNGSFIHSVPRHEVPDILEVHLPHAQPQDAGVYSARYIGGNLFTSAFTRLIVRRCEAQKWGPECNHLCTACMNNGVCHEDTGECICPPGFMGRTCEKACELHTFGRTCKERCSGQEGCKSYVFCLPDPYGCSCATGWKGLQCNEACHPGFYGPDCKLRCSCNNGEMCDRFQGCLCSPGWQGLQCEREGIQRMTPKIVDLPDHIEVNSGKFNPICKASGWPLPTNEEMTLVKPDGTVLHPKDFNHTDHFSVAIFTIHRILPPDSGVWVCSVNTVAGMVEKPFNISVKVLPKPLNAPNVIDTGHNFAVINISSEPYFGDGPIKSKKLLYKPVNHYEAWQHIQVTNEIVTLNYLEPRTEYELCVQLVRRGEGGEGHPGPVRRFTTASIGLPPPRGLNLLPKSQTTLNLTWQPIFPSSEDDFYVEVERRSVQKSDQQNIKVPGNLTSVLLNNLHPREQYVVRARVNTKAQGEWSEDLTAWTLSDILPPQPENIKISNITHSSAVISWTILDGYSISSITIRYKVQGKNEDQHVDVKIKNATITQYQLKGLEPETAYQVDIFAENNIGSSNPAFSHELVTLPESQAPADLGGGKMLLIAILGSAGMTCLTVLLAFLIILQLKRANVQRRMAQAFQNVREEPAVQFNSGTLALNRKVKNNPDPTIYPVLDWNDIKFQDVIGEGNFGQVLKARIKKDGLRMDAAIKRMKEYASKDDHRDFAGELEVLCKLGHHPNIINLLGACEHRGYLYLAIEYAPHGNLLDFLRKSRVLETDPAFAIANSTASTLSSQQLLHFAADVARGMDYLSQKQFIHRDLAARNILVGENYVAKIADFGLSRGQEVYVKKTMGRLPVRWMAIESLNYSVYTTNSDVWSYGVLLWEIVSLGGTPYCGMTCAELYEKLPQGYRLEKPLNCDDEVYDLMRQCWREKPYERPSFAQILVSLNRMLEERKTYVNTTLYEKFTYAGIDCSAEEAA
Settings: at 1 µM
# inhibition >= 4% gives YES, anything below gives NO

Use these answered entries as a reference point.
COc1ccc2cc(-c3c(-c4ccncc4)nc(-c4ccc([S+](C)[O-])cc4)n3C)ccc2c1 (stereo not given) | YES
CCn1c(-c2nonc2N)nc2c(N3CCCC3)nccc21 | NO
O=C1NC(=O)C(N2CCc3ccccc32)=C1c1ccc(Cl)cc1 | YES

Request: Tell me whether inhibition is at least 4% here: `CCc1cccc(NC(=O)Nc2ccc(Oc3ccc4nc(NC(=O)OC)[nH]c4c3)cc2)c1`
Response: YES

----------
Molecular target: MAP kinase-activated protein kinase 3 (Homo sapiens)
Details: at 0.1 µM
Description: GSK_PKIS: MAPKAPK3 mean inhibition at 0.1 uM [Nanosyn]
Listing: inhibition of selected compounds
Answer in %, number only, no unit symbol.

Please review the entries below; each comes with its answer.
CCn1c(-c2nonc2N)nc2c(N3CCCC3)nccc21 | -0.94
O=C1NC(=O)C(c2ccccc2Cl)=C1Nc1cccc(O)c1 | 1.45
Cc1ccc(NC(=O)c2ccnc(N3CCCC3)c2)cc1-c1ccc(C(=O)NCC2CC2)cc1 | 19.9
c1cnn2ncc(-c3ccnc(Nc4ccc5c(c4)OCCO5)n3)c2c1 | 3.74

Request: # input compound: `CC(C)=Cc1cccc2c1/C(=N/Nc1ccc(S(N)(=O)=O)cc1)C(=O)N2` ; wanted: its inhibition
Response: 7.64

Request: # input compound: `O=C1NC(=O)C(c2cccc(Cl)c2)=C1Nc1ccc(O)c(Cl)c1` ; wanted: its inhibition
Response: -0.58

Request: # input compound: `CN1CCC(C(=O)Nc2n[nH]c3nnc(-c4ccccc4)cc23)CC1` ; wanted: its inhibition
Response: -1.34

Request: # input compound: `Cc1cccc(-c2n[nH]cc2-c2ccc3ncccc3n2)n1` ; wanted: its inhibition
Response: 0.58

Request: # input compound: `CS(=O)(=O)Nc1ccc(N/C=C2\C(=O)Nc3ccccc32)cc1` ; wanted: its inhibition
Response: -2.11

Request: # input compound: `[O-][S+]1CCN(Cc2ccc(-c3ccc4ncnc(Nc5ccc(OCc6ccccc6)c(F)c5)c4c3)o2)CC1` ; wanted: its inhibition
Response: 0.85

----------
Biological target: Mitogen-activated protein kinase 12 (Homo sapiens)
Conditions: at 0.1 µM
Description: GSK_PKIS: P38gamma mean inhibition at 0.1 uM [Nanosyn]
endpoint: inhibition (%)
Answer in %, number only, no unit symbol.

Please review the entries below; each comes with its answer.
COc1cccc(-n2ncc3c(N/N=C/c4cccc(F)c4)ncnc32)c1 | 4.04
N#Cc1c(NC(=O)c2cccc3ccccc23)sc2c1CCCC2 | 2.38
COc1cc(C)c(NC(=O)CN(C)C)cc1Nc1nc(Nc2cccc(F)c2C(N)=O)c2cc[nH]c2n1 | 0.52
CCn1c(-c2nonc2N)nc2cnc(Oc3cccc(NC(=O)c4ccc(OCCN5CCOCC5)cc4)c3)cc21 | 8.56

Request: # input compound: `CCn1c(-c2nonc2N)nc2cncc(C(=O)N3CCNCC3)c21` ; wanted: its inhibition
Response: 3.73

Request: # input compound: `CNC(=O)c1cncc(/C=C/c2c(Cl)cccc2Cl)c1` ; wanted: its inhibition
Response: 3.45

Request: # input compound: `CS(=O)(=O)CCN(CC#N)Cc1ccc(-c2ccc3ncnc(Nc4ccc(OCc5cccc(F)c5)c(Cl)c4)c3c2)o1` ; wanted: its inhibition
Response: 2.47

Request: # input compound: `CS(=O)(=O)CCNCc1nc(-c2ccc3ncnc(Nc4ccc(F)c(Cl)c4)c3c2)cs1` ; wanted: its inhibition
Response: 0.83

Request: # input compound: `[O-][S+]1CCN(Cc2ccc(-c3ccc4ncnc(Nc5ccc(OCc6ccccc6)c(F)c5)c4c3)o2)CC1` ; wanted: its inhibition
Response: 0.27

Request: # input compound: `CN(C)c1cc2c(Nc3ccc4nc(Cc5ccccc5)[nH]c4c3)ncnc2cn1` ; wanted: its inhibition
Response: 5.41

Request: # input compound: `Cc1cc(O)cc(C)c1/C=C/c1cncc(-c2nn[nH]n2)c1` ; wanted: its inhibition
Response: 1.46

Request: # input compound: `Cc1cccc(-c2n[nH]cc2-c2ccc3ncccc3n2)n1` ; wanted: its inhibition
Response: 0.84

Request: # input compound: `CC(=O)Nc1cccc(C#Cc2cncnc2Nc2ccc(OCc3cccc(F)c3)c(Cl)c2)n1` ; wanted: its inhibition
Response: -2.16

----------
Listing: inhibition of selected molecules
Test system: Tyrosine-protein kinase ABL1 (Homo sapiens), P00519 [Q252H]
Settings: at 0.1 µM
Answer in %, number only, no unit symbol.

Please review the entries below; each comes with its answer.
CCn1c(-c2nonc2N)nc2cncc(C(=O)N3CC[C@H](N)C3)c21 | 4.86
O=C1Nc2ccc(C(=O)c3ccco3)cc2C1=Cc1cc(Cl)c(O)c(Cl)c1 | 5.53
O=C1NC(=O)C(c2ccccc2Cl)=C1Nc1cccc(O)c1 | 2.48
COc1ccc(-c2ccncc2)cc1C(N)=O | 3.19
COc1ccc2cc(-c3c(-c4ccncc4)nc(-c4ccc([S+](C)[O-])cc4)n3C)ccc2c1 (configuration not stated) | 1.22
Cn1cc(C=C2C(=O)Nc3cccnc32)c2ccccc21 | 6.07

From here, focus on the item given below.
Request: # input molecule: `N#Cc1c(NC(=O)c2cccc3ccccc23)sc2c1CCCC2` ; wanted: its inhibition
Response: 5.46

----------
Target: Protein kinase C gamma type (Homo sapiens) (UniProt P05129);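 also: values are mean percent inhibition of PKC gamma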
Conditions: at 0.1 µM
endpoint: inhibition

Please review the entries below; each comes with its answer.
Cc1ccc(C(=O)NC2CCCCC2)cc1-c1ccc(C(=O)NCC2CC2)cc1 | 3.68%
CC1=C(C(=O)Nc2ccc3[nH]ncc3c2)C(c2ccc3ccccc3c2)CC(=O)N1 (centres undefined) | 0.67%
CC(C)=Cc1cccc2c1/C(=N/Nc1ccc(S(N)(=O)=O)cc1)C(=O)N2 | 1.44%

From here, focus on the item given below.
Request: # input compound: `CC(=O)Nc1cccc(C#Cc2cncnc2Nc2ccc(OCc3cccc(F)c3)c(Cl)c2)n1` ; wanted: its inhibition
Response: 2.74%

----------
Biological target: MAP/microtubule affinity-regulating kinase 4 (Homo sapiens);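 also: values are averaged percent inhibition of MARK4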
Details: at 0.1 µM
endpoint: inhibition (%)
Answer in %, number only, no unit symbol.

Request: # input molecule: `O=C1NC(=O)C(c2cccc(Cl)c2)=C1Nc1ccc(O)c(Cl)c1` ; wanted: its inhibition
Response: 2.36

Request: # input molecule: `Cc1cccc(-c2n[nH]cc2-c2ccc3ncccc3n2)n1` ; wanted: its inhibition
Response: -0.19

----------
Target: MAP kinase-activated protein kinase 2 (Homo sapiens);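 also: figures are mean inhibition values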
Settings: at 0.1 µM
Listing: inhibition of selected compounds
Answer in %, number only, no unit symbol.

Please review the entries below; each comes with its answer.
CS(=O)(=O)CCN(CC#N)Cc1ccc(-c2ccc3ncnc(Nc4ccc(OCc5cccc(F)c5)c(Cl)c4)c3c2)o1 | 0.26
CCCN1CCC=C(c2ccc(Nc3nc(Nc4ccccc4C(N)=O)c4cc[nH]c4n3)c(C)c2)C1 | 2.63
CCn1c(-c2nonc2N)nc2c(C#CC(C)(C)O)nc(CN3CCCC3)cc21 | -0.49

Request: # input compound: `Cc1cccc(-c2n[nH]cc2-c2ccc3ncccc3n2)n1` ; wanted: its inhibition
Response: 0.61

Request: # input compound: `O=C1NC(=O)C(N2CCc3ccccc32)=C1c1ccc(Cl)cc1` ; wanted: its inhibition
Response: 4.64

Request: # input compound: `COc1ccc(-c2ccncc2)cc1C(N)=O` ; wanted: its inhibition
Response: 5.44

Request: # input compound: `O=C1NC(=O)C(c2ccc(Cl)cc2)=C1Nc1ccc(Cl)c(C(=O)O)c1` ; wanted: its inhibition
Response: -1.23

Request: # input compound: `c1cnn2ncc(-c3ccnc(Nc4ccc5c(c4)OCCO5)n3)c2c1` ; wanted: its inhibition
Response: 2.05

Request: # input compound: `CS(=O)(=O)CCNCc1ccc(-c2ccc3ncnc(Nc4ccc(OCc5cccc(F)c5)c(C(F)(F)F)c4)c3c2)o1` ; wanted: its inhibition
Response: 4.67

Request: # input compound: `CN1CCC(C(=O)Nc2n[nH]c3nnc(-c4ccccc4)cc23)CC1` ; wanted: its inhibition
Response: -0.36

Request: # input compound: `COc1ccc(-c2coc3ncnc(N)c23)cc1` ; wanted: its inhibition
Response: 3.78

----------
Target: Testis-specific serine/threonine-protein kinase 2 (Homo sapiens) (UniProt Q96PF2);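 also: values are mean inhibition of TSSK2 activity from the GSK PKIS profiling panel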
Sequence (Q96PF2 whole entry): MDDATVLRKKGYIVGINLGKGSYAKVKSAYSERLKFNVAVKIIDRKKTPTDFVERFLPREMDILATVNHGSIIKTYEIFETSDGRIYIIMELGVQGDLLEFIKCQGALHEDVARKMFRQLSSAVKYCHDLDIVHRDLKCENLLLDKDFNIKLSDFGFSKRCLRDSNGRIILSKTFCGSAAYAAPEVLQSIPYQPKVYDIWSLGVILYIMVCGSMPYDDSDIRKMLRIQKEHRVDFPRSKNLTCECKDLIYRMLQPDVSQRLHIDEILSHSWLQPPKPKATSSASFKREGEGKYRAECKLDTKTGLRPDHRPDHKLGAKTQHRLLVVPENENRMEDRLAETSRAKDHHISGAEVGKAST
Conditions: at 0.1 µM
endpoint: inhibition (%)
Answer in %, number only, no unit symbol.

O=C1NC(=O)C(N2CCc3ccccc32)=C1c1ccc(Cl)cc1 | 1.38
O=C1Nc2ccc(C(=O)c3ccco3)cc2C1=Cc1cc(Cl)c(O)c(Cl)c1 | 1.82
CCCN1CCC=C(c2ccc(Nc3nc(Nc4ccccc4C(N)=O)c4cc[nH]c4n3)c(C)c2)C1 | 7.28
c1cnn2ncc(-c3ccnc(Nc4ccc5c(c4)OCCO5)n3)c2c1 | 2.63

Request: # input compound: `Fc1cccc(COc2ccc(Nc3ncnc4cc(-c5ccc[nH]5)sc34)cc2Cl)c1` ; wanted: its inhibition
Response: 1.09

Request: # input compound: `NC(=O)c1cccc(Nc2nccc(Nc3cccc4[nH]ncc34)n2)c1` ; wanted: its inhibition
Response: -1.7
